Can you tell me total protein half-life in vivo for the items I'm about to list?
# assayProtocol: total protein half-life in vivo (active degradation + dilution); higher = more stable protein
# details: wild type E. coli NCM3722; growth: P-lim chemostat; doubling time 12 h
One number for each entry, in h.

>>> testresult("MIYIGLPQWSHPKWVRLGITSLEEYARHFNCVEGNTTLYALPKPEVVLRWREQTTDDFRFCFKFPATISHQAALRHCDDLVTEFLTRMSPLAPRIGQYWLQLPATFGPRELPALWHFLDSLPGEFNYGVEVRHPQFFAKGEEEQTLNRGLHQRGVNRVILDSRPVHAARPHSEAIRDAQRKKPKVPVHAVLTATNPLIRFIGSDDMTQNRELFQVWLQKLAQWHQTTTPYLFLHTPDIAQAPELVHTLWEDLRKTLPEIGAVPAIPQQSSLF")
11.5

Each sequence below has a reported value. Please supply its total protein half-life in vivo.
1. MAKLTLQEQLLKAGLVTSKKAAKVERTAKKSRVQAREARAAVEENKKAQLERDKQLSEQQKQAALAKEYKAQVKQLIEMNRITIANGDIGFNFTDGNLIKKIFVDKLTQAQLINGRLAIARLLVDNNSEGEYAIIPASVADKIAQRDASSIVLHSALSAEEQDEDDPYADFKVPDDLMW
2. MAKVLVLYYSMYGHIETMARAVAEGASKVDGAEVVVKRVPETMPPQLFEKAGGKTQTAPVATPQELADYDAIIFGTPTRFGNMSGQMRTFLDQTGGLWASGALYGKLASVFSSTGTGGGQEQTITSTWTTLAHHGMVIVPIGYAAQELFDVSQVRGGTPYGATTIAGGDGSRQPSQEELSIARYQGEYVAGLAVKLNG [P0A8G6]

Return:
4.41
11.7

---

# assayProtocol: total protein half-life in vivo (active degradation + dilution); higher = more stable protein
# details: E. coli NCM3722 delta-hslV; growth: N-lim chemostat; doubling time 6 h
Can you tell me total protein half-life in vivo for the items I'm about to list?

Each sequence below has a reported value. Please supply its total protein half-life in vivo.
1. MENNEIQSVLMNALSLQEVHVSGDGSHFQVIAVGELFDGMSRVKKQQTVYGPLMEYIADNRIHAVSIKAYTPAEWARDRKLNGF [P0A9W6]
2. MTDMNILDLFLKASLLVKLIMLILIGFSIASWAIIIQRTRILNAAAREAEAFEDKFWSGIELSRLYQESQGKRDNLTGSEQIFYSGFKEFVRLHRANSHAPEAVVEGASRAMRISMNRELENLETHIPFLGTVGSISPYIGLFGTVWGIMHAFIALGAVKQATLQMVAPGIAEALIATAIGLFAAIPAVMAYNRLNQRVNKLELNYDNFMEEFTAILHRQAFTVSESNKG [P0ABU9]

Return:
["4.35 h", "7.1 h"]

---

# assayProtocol: total protein half-life in vivo (active degradation + dilution); higher = more stable protein
# details: E. coli NCM3722 delta-hslV; growth: N-lim chemostat; doubling time 6 h
experimentalEndpoint: total protein half-life in vivo (h)
One number for each entry, in h.

>>> testresult("MTQFASPVLHSLLDTDAYKLHMQQAVFHHYYDVHVAAEFRCRGDDLLGIYADAIREQVQAMQHLRLQDDEYQWLSALPFFKADYLNWLREFRFNPEQVTVSNDNGKLDIRLSGPWREVILWEVPLLAVISEMVHRYRSPQADVAQALDTLESKLVDFSALTAGLDMSRFHLMDFGTRRRFSREVQETIVKRLQQESWFVGTSNYDLARRLSLTPMGTQAHEWFQAHQQISPDLANSQRAALAAWLEEYPDQLGIALTDCITMDAFLRDFGVEFASRYQGLRHDSGDPVEWGEKAIAHYEKLGIDPQSKTLVFSDNLDLRKAVELYRHFSSRVQLSFGIGTRLTCDIPQVKPLNIVIKLVECNGKPVAKLSDSPGKTICHDKAFVRALRKAFDLPHIKKAS")
2.98
>>> testresult("MGMIGYFAEIDSEKINQLLESTEKPLMDNIHDTLSGLRRLDIDKRWDFLHFGLTGTSAFDPAKNDPLSRAVLGEHSLEDGIDGFLGLTWNQELAATIDRLESLDRNELRKQFSIKRLNEMEIYPGVTFSEELEGQLFASIMLDMEKLISAYRRMLRQGNHALTVIVG")
2.19
>>> testresult("MSLPHCPKCNSEYTYEDNGMYICPECAYEWNDAEPAQESDELIVKDANGNLLADGDSVTIIKDLKVKGSSSMLKIGTKVKNIRLVEGDHNIDCKIDGFGPMKLKSEFVKKN [P0AFJ1]")
6.14
>>> testresult("MTRPIQASLDLQALKQNLSIVRQAATHARVWSVVKANAYGHGIERIWSAIGATDGFALLNLEEAITLRERGWKGPILMLEGFFHAQDLEIYDQHRLTTCVHSNWQLKALQNARLKAPLDIYLKVNSGMNRLGFQPDRVLTVWQQLRAMANVGEMTLMSHFAEAEHPDGISGAMARIEQAAEGLECRRSLSNSAATLWHPEAHFDWVRPGIILYGASPSGQWRDIANTGLRPVMTLSSEIIGVQTLKAGERVGYGGRYTARDEQRIGIVAAGYADGYPRHAPTGTPVLVDGVRTMTVGTVSMDMLAVDLTPCPQAGIGTPVELWGKEIKIDDVAAAAGTVGYELMCALALRVPVVTV")
3.14
>>> testresult("MHYQPKQDLLNDRIILVTGASDGIGREAAMTYARYGATVILLGRNEEKLRQVASHINEETGRQPQWFILDLLTCTSENCQQLAQRIAVNYPRLDGVLHNAGLLGDVCPMSEQNPQVWQDVMQVNVNATFMLTQALLPLLLKSDAGSLVFTSSSVGRQGRANWGAYAASKFATEGMMQVLADEYQQRLRVNCINPGGTRTAMRASAFPTEDPQKLKTPADIMPLYLWLMGDDSRRKTGMTFDAQPGRKPGISQ")
3.87

Moving on to the next sequence.
Enquiry: Which total protein half-life in vivo reading was recorded for the sequence MAEVTQLKRYDARPINWGKWFLIGIGMLVSAFILLVPMIYIFVQAFSKGLMPVLQNLADPDMLHAIWLTVMIALIAVPVNLVFGILLAWLVTRFNFPGRQLLLTLLDIPFAVSPVVAGLVYLLFYGSNGPLGGWLDEHNLQIMFSWPGMVLVTIFVTCPFVVRELVPVMLSQGSQEDEAAILLGASGWQMFRRVTLPNIRWALLYGVVLTNARAIGEFGAVSVVSGSIRGETLSLPLQIELLEQDYNTVGSFTAAALLTLMAIITLFLKSMLQWRLENQEKRAQQEEHHEH [P0AEB0] ?
Return: 4.23

---

Can you tell me total protein half-life in vivo for the items I'm about to list?
# assayProtocol: total protein half-life in vivo (active degradation + dilution); higher = more stable protein
# details: wild type E. coli NCM3722; growth: N-lim chemostat; doubling time 12 h
Numbers only, in h.

>>> testresult("MKKRKTVKKRYVIALVIVIAGLITLWRILNAPVPTYQTLIVRPGDLQQSVLATGKLDALRKVDVGAQVSGQLKTLSVAIGDKVKKDQLLGVIDPEQAENQIKEVEATLMELRAQRQQAEAELKLARVTYSRQQRLAQTKAVSQQDLDTAATEMAVKQAQIGTIDAQIKRNQASLDTAKTNLDYTRIVAPMAGEVTQITTLQGQTVIAAQQAPNILTLADMSAMLVKAQVSEADVIHLKPGQKAWFTVLGDPLTRYEGQIKDVLPTPEKVNDAIFYYARFEVPNPNGLLRLDMTAQVHIQLTDVKNVLTIPLSALGDPVGDNRYKVKLLRNGETREREVTIGARNDTDVEIVKGLEAGDEVVIGEAKPGAAQ")
13.5

Moving on to the next sequence.
Enquiry: Which total protein half-life in vivo reading was recorded for the sequence MTTYDRNRNAITTGSRVMVSGTGHTGKILSIDTEGLTAEQIRRGKTVVVEGCEEKLAPLDLIRLGMN ?
Return: 6.36

---

Can you tell me total protein half-life in vivo for the items I'm about to list?
# assayProtocol: total protein half-life in vivo (active degradation + dilution); higher = more stable protein
# details: E. coli NCM3722 delta-clpP; growth: N-lim chemostat; doubling time 6 h
One number for each entry, in h.

>>> testresult("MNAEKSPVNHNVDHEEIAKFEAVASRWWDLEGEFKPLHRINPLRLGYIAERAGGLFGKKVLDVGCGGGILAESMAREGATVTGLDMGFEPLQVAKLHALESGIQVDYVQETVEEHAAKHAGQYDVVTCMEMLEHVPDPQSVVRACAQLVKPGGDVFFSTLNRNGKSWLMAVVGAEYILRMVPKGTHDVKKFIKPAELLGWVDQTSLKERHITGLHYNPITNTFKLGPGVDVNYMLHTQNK")
4.09
>>> testresult("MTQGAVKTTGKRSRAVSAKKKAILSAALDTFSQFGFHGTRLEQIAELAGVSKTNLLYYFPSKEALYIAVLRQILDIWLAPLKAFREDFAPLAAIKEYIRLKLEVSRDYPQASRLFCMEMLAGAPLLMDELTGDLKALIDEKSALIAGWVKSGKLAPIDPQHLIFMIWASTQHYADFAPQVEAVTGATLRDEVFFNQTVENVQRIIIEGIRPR [P0ACU2]")
5.74

Enquiry: Which total protein half-life in vivo reading was recorded for the sequence MKVKVLSLLVPALLVAGAANAAEVYNKDGNKLDLYGKVDGLHYFSDNKDVDGDQTYMRLGFKGETQVTDQLTGYGQWEYQIQGNSAENENNSWTRVAFAGLKFQDVGSFDYGRNYGVVYDVTSWTDVLPEFGGDTYGSDNFMQQRGNGFATYRNTDFFGLVDGLNFAVQYQGKNGNPSGEGFTSGVTNNGRDALRQNGDGVGGSITYDYEGFGIGGAISSSKRTDAQNTAAYIGNGDRAETYTGGLKYDANNIYLAAQYTQTYNATRVGSLGWANKAQNFEAVAQYQFDFGLRPSLAYLQSKGKNLGRGYDDEDILKYVDVGATYYFNKNMSTYVDYKINLLDDNQFTRDAGINTDNIVALGLVYQF ?
Return: 6.32
